Molecular target: T1, TNFR1 (Homo sapiens, UniProt P19438)
T1 chain: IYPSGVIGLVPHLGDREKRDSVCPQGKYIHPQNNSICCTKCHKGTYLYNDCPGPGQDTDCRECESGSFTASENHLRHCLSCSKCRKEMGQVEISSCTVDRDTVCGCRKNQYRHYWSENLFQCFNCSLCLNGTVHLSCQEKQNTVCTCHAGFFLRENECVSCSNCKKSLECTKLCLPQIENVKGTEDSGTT
Experiment: yeast display SC50
propertyMeasured: apparent Kd (screen) (nM)

binder: K30L (designed binder) MTLQELLREEALRRAEAEAFRYALELLAELFPEQKEYLLDLAEEIESQIRSLSGVDVEDVRKFLDKEWAWVKELLAEHPAELAEVEAARAARLAELRAEVEAKVAA
propertyMeasured: apparent Kd (screen)
numericValue: 0.539
//
binder: P32S (designed binder) MTLQELLREEALRRAEAEAFRYALELLAEKFSEQKEYLLDLAEEIESQIRSLSGVDVEDVRKFLDKEWAWVKELLAEHPAELAEVEAARAARLAELRAEVEAKVAA
propertyMeasured: apparent Kd (screen)
numericValue: 0.49
//
binder: A15V (designed binder) MTLQELLREEALRRVEAEAFRYALELLAEKFPEQKEYLLDLAEEIESQIRSLSGVDVEDVRKFLDKEWAWVKELLAEHPAELAEVEAARAARLAELRAEVEAKVAA
propertyMeasured: apparent Kd (screen)
numericValue: 0.653
//
binder: E81A (designed binder) MTLQELLREEALRRAEAEAFRYALELLAEKFPEQKEYLLDLAEEIESQIRSLSGVDVEDVRKFLDKEWAWVKELLAEHPAALAEVEAARAARLAELRAEVEAKVAA
propertyMeasured: apparent Kd (screen)
numericValue: 0.718
